Origin of values: patent US20220356229A1

Target: T1, MERS full length Spike (MERS-CoV, UniProt K9N5Q8 18-1291)
T1 sequence: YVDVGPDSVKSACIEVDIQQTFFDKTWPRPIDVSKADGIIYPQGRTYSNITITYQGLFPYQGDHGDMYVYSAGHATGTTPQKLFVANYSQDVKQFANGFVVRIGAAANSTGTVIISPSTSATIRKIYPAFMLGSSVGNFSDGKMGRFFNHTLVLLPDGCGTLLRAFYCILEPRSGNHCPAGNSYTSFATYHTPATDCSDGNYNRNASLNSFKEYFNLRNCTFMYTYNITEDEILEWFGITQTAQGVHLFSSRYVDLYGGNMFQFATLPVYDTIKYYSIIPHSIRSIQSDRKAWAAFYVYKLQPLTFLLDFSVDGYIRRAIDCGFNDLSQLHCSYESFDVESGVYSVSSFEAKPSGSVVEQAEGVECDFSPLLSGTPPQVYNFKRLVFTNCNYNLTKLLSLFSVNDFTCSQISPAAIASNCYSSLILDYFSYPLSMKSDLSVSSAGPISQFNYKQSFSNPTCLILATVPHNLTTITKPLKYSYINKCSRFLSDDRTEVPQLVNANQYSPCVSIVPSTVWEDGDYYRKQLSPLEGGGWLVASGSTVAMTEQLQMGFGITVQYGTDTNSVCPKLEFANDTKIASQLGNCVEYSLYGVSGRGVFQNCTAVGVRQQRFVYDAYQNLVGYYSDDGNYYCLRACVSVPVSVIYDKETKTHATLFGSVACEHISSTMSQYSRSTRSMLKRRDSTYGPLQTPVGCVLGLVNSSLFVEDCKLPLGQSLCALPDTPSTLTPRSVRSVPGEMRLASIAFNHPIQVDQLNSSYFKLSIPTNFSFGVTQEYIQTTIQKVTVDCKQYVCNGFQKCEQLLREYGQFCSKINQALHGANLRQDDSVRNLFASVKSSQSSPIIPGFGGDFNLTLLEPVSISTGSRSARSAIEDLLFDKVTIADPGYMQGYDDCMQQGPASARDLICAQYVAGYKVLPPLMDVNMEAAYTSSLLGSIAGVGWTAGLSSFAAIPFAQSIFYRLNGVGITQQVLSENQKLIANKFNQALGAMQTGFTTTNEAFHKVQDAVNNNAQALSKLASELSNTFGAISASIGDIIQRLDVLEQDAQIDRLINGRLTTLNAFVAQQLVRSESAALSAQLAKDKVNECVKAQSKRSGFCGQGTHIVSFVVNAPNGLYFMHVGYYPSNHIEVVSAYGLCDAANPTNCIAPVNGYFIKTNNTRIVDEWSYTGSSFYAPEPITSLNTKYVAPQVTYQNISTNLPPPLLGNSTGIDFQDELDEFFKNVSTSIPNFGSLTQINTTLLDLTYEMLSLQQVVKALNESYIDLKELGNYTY
Recorded median fluorescence intensity, fold over isotype control for the following binders
Give the value in fold over isotype but do not write fold over isotype after it.

In the examples that follow, each entry is paired with its recorded median fluorescence intensity, fold over isotype control.
[[record]]
binder = "mAb 1585 (antibody, V domains shown) VH: QVQLVESGGGVVQPGRSLRLSCAASGFTFSRFTLHWVRQAPGKGLEWVAVISYDGSNKYYADSVKGRFTISRDNSKSTLYLQMNSLRAEDTGVYYCARDPSTVTGYFDYWGQGTLVTVSS VL: SYVLTQPPSVSVAPGKTAKISCGGDSIGSKSVHWYQQKPGQAPVLVIYYDNDRPSGIPERFSGSNSGNTATLTISRVEAGDEADYYCQVWDIGVVFGGGTKLTVLG"
val = 0.94

[[record]]
binder = "mAb 1444 (antibody, V domains shown) VH: QVQLVQSGAEVKKPGASVKVSCKASGYTFTAYYMHWVRQAPGQGLEWMGWINPNSDDTNYAQKFQGRVTMTRDTSISTAYMELSRLRSDDTAVYYCAREEGVFTIGDRYFDLWGRGTLVSVSS VL: QTVVTQEPSFSVSPGGTVTLTCGLSSGSVSTSYYPSWYQQTPGQAPRTLIYNTNTRSSGVPDRFSGSILGNKAALTITGAQADDESDYYCVLYMGSGIWVFGGGTKLTVLG"
val = 0.98

[[record]]
binder = "mAb 1036 (antibody, V domains shown) VH: QVQLVQSGAEVKKPGSSVKVSCKASGGTLSSYTISWVRQAPGQGLEWMGRIIPILGIADYAQKFQGRVTITADKSTTTAYMDLSSLGSEDTALYYCASAPKDWSSGFDYYYGMDVWGQGTMVTVSS VL: DIVMTQTPLSLSVTPGQPASISCKSSQSLLNSDGKTYLYWYLQKAGQPPQLLIYEVSNRFSGVPERFSGSGSGTDFTLKISRVEAEDVGVYYCMQSVQLPPYTFGQGTKLEITR"
val = 1.07

[[record]]
binder = "mAb 923 (antibody, V domains shown) VH: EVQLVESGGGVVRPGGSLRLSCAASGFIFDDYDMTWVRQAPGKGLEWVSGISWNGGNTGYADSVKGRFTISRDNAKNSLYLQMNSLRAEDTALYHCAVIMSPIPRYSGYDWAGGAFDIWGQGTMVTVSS VL: SSELTQDPAVSVALGQTVRITCQGDSLRSYYASWYQQKPGQVPILVIYDKNNRPSGIPDRFSGSSSGNTASLTITGAQAEDEADYYCNSRDSSGNAVVFGGGTKLTVLG"
val = 1.08


Here's the next entry for you.
Problem: Give the measured median fluorescence intensity, fold over isotype control for mAb 1404 (antibody, V domains shown) VH: QITLKESGPTLVKPTQTLTLTCTFSGFSLSISGVGVGWLRQPPGKALEWLALIYWDDDKRYSPSLKSRLTISKDTSKNQVVLKMTNIDPVDTATYYCAHHSISTIFDHWGQGTLVTVSS VL: QSALTQPASVSGSPGQSITISCTATSSDVGDYNYVSWYQQHPGKAPKLMIFEVSDRPSGISNRFSGSKSGNTASLTISGLQAEDEADYYCSSYTTSSAVFGGGTKLTVLG
Result: 0.91
